Just for reference, PubChem BioAssay AID1851 is where these values come from.

biological target: Cytochrome P450 3A4 (Homo sapiens); test: Cytochrome panel assay with activity outcomes; conditions: recombinant CYP, pro-luciferin dealkylation, luminescence, p450-cyp3a4; series mostly up to 57.1 µM
In all, about 16,000 compounds went through this assay and about 5,100 (32%) were called active. About 25% were inconclusive and are not listed. Calls follow the shape of the dose curve; as a rule, active = well fitted curve in the direction sought with a large enough effect; inconclusive = small, poorly fitted or top-dose-only effect, or effect the other way; inactive = no such curve, though single readings can be large or run the other way. The list shows a part of the results.
Your answer must be one of the following: yes (1) for active, no (0) for inactive

// known answers, use as guide
COC(=O)CSc1ncc(OC)c(OC)n1 | no (0)
Nc1nc(Cl)nc2c1ncn2[C@@H]1O[C@@H](CO)[C@@H](O)[C@H]1O | no (0)
CCNc1ccc(Br)cc(C(=O)/C=C/c2ccc3c(c2)OCO3)c1=O | yes (1)
S=C1SCN(Cc2ccccn2)CN1Cc1ccco1 | yes (1)
COC(=O)c1cc(=O)n(C2CC2)c(=NC2CC2)s1 | no (0)

Below: the item to evaluate.
Query block: For `COc1ccc(O[C@H]2C=C[C@@H](c3ccccc3)O[C@H]2COC(=O)CC/C(C)=N/O[C@@H]2O[C@H](COC(C)=O)[C@H](OC(C)=O)[C@H](OC(C)=O)[C@H]2OC(C)=O)cc1` , which call appears in the assay record?
Result block: yes (1)
